Each recorded value in this set is attributed to ChEMBL document CHEMBL4715736.

System: OVCAR-5
Assay: Growth inhibition of human OVCAR-5 cells assessed as cell growth at 100 uM incubated for 48 hrs by sulforhodamine B assay relative to control
Format: functional
Conditions: read-out: Activity
reported_metric: growth at 100 µM (%)
Use % as the unit, but write only the number.

Worked set:
INSERT INTO measurements (record_smiles, measurement_target, reported_metric, readout_value) VALUES
  ('Nc1c(C(=O)Nc2ccccc2)sc2nc3c(cc12)CN(Cc1ccccc1)CC3', 'OVCAR-5', 'growth at 100 µM', 66),
  ('Cc1ccc(NC(=O)c2sc3nc4c(cc3c2N)C(=O)CCC4)cc1C', 'OVCAR-5', 'growth at 100 µM', 31),
  ('CCc1ccccc1NC(=O)c1sc2nc3c(cc2c1N)C(=O)CCC3', 'OVCAR-5', 'growth at 100 µM', 7),
  ('COc1cccc(NC(=O)c2sc3nc4c(cc3c2N)CN(Cc2ccccc2)CC4)c1', 'OVCAR-5', 'growth at 100 µM', 34),
  ('CCc1cccc(C)c1NC(=O)c1sc2nc3c(cc2c1N)C(=O)CCC3', 'OVCAR-5', 'growth at 100 µM', 30),
  ('Cc1cc(C)c(NC(=O)c2sc3nc4c(cc3c2N)CN(Cc2ccccc2)CC4)c(C)c1', 'OVCAR-5', 'growth at 100 µM', 14);

Now for a further molecule.
# input Look at this molecule and give its reported growth at 100 µM. Cc1cccc(NC(=O)c2sc3nc4c(cc3c2N)C(=O)CCC4)c1
# output -20
